Test system: Escherichia coli TOP10;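 note: peptides expressed intracellularly from a pBAD plasmid library in pooled LB shake-flask culture, induced with 0.3% L-arabinose, DNA abundance read by NGS, three biological replicates, DESeq2 with apeglm shrinkage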
Assay: shrunken log2 fold change of peptide-encoding DNA abundance (4.5 h post-induction vs induction); higher = less antimicrobial activity (less host growth inhibition)
Details: time post-induction: 4.5 h; library: site-saturation at positions 5, 18, 19, 20
Label Y for high-side shrunken log2 fold change (at or above 0.07) and N for low-side shrunken log2 fold change (below it).

Query string: Hi, just wondering whether RRIRSRPPRLPRPRPRPIGWPRP shows shrunken log2 fold change of 0.07 or higher.
Result string: Y

Query string: For this sequence, is measured shrunken log2 fold change 0.07 or higher? RRIRPRPPRLPRPRPRPTFSPRP
Result string: N

Query string: Dear colleague, could you confirm whether RRIRRRPPRLPRPRPRPVCEPRP has shrunken log2 fold change at or above 0.07?
Result string: Y

Query string: Exam item: decide whether the reported shrunken log2 fold change for RRIRHRPPRLPRPRPRPQGDPRP is at least 0.07.
Result string: Y

Query string: Dear colleague, could you confirm whether RRIRERPPRLPRPRPRPDFKPRP has shrunken log2 fold change at or above 0.07?
Result string: N

Query string: Does shrunken log2 fold change meet or surpass 0.07 for RRIRHRPPRLPRPRPRPCDLPRP ?
Result string: N

Query string: API: above_or_equal(metric=shrunken log2 fold change, cutoff=0.07) for item RRIRQRPPRLPRPRPRPFTNPRP
Result string: N

Query string: Check the entry RRIRARPPRLPRPRPRPAERPRP : does shrunken log2 fold change equal or exceed 0.07?
Result string: Y

Query string: Given RRIRARPPRLPRPRPRPQFFPRP , state whether its shrunken log2 fold change is at least 0.07.
Result string: N

Query string: Determine whether measured shrunken log2 fold change meets or exceeds 0.07 for RRIRTRPPRLPRPRPRPQNSPRP
Result string: N

Query string: Record RRIRCRPPRLPRPRPRPKVGPRP ; criterion: shrunken log2 fold change no lower than 0.07. Met?
Result string: N

Query string: I'd appreciate it if you could say whether RRIRNRPPRLPRPRPRPRHMPRP has shrunken log2 fold change at least equal to 0.07.
Result string: N

Query string: Is it the case that RRIRTRPPRLPRPRPRPSHTPRP has shrunken log2 fold change reaching or exceeding 0.07?
Result string: N

Query string: Confirm if shrunken log2 fold change reported for the sequence RRIRDRPPRLPRPRPRPEHMPRP is 0.07 or above.
Result string: N

Query string: Confirm if shrunken log2 fold change reported for the sequence RRIRDRPPRLPRPRPRPPRMPRP is 0.07 or above.
Result string: Y

Query string: Is shrunken log2 fold change for RRIRQRPPRLPRPRPRPMVRPRP at or above 0.07?
Result string: N

Query string: Threshold query (shrunken log2 fold change >= 0.07) on RRIRMRPPRLPRPRPRPTSSPRP
Result string: Y

Query string: Has RRIRNRPPRLPRPRPRPTTVPRP a recorded shrunken log2 fold change greater than or equal to 0.07?
Result string: N

Query string: Exam item: decide whether the reported shrunken log2 fold change for RRIRTRPPRLPRPRPRPCSKPRP is at least 0.07.
Result string: N

Query string: Entry RRIRIRPPRLPRPRPRPLWFPRP : is its shrunken log2 fold change no less than 0.07?
Result string: N

Source: the supplement of paper PMC9112550
